- target.entity: T1, PD-1 protein (human, UniProt Q15116 25-167, limits assumed)
- T1 construct: also called human PD-1
- assay.text: ELISA, PD-1 coated
outcome.measure: OD450 at 2 µg/mL (OD450)
Please reply with the bare figure in OD450 and do not write the unit itself.

Take a look at these entries with their results.
| binder | unit.of.measure | OD450 at 2 µg/mL |
| --- | --- | --- |
| 504#SS9 (Fc fusion, VHH-FC construct from HEK293 cells; not shown: The (G4S)3 linker leading to it is left out with it) VHH: EVQLQESGGGLVQAGGSLRLSCAASGRSFSGYAMAWFRQAPGKEREFVAAVNWNGGSTYYADSVKGRFTISRDNAKDTVYLQMNSLKPEDTAVYYCNARPTFGAYYSDYKSGVDYWGQGTQVTVSS | OD450 | 0.04 |
| 504#SS25 (Fc fusion, not shown: a dimerising Fc or GST; small tags and cut ends, VHH-FC construct from HEK293 cells) VHH: QVQLVETGGGLVQAGGSLRLSCAASGDTIFISSMAWYRQAPGKERELVASIDSDDIIYYAATVKGRFTISRDNDKPTMYLQMDTLQPEDTAVYYCRVESQDYYFDYDRDSWGQGTQVTVSS | OD450 | 0.04 |

Query: Look up and state reported OD450 at 2 µg/mL for 504#SS14 (Fc fusion, not shown: a dimerising Fc or GST; small tags and cut ends, VHH-FC construct from HEK293 cells) VHH: QVQLVESGGGLVQPGGSLRLSCVASGFTFSSYWMYWVRQAPGKGLEWVSAIDTTGGSTAYTHSVKGRFTISRDNARNTLYLQMNNLKSEDTAVYYCANSTYFNDDPEYDRWGQGTQVTVSS
Result: 0.04

Query: Consider the binder 504#SS28 (Fc fusion, not shown: a dimerising Fc or GST; small tags and cut ends, VHH-FC construct from HEK293 cells) VHH: QVQLVESGGGSVQPGGSLRLSCAVSGFTLDYYDIGWFRQAPGKERDWISCISSSDGSQYYADSVKDRFFISRDNAKNTVYLQMNSLEPGDTAVYYCAADFDTYRFCSGFGPDAYSSWGQGTQVIVSS and give its recorded OD450 at 2 µg/mL.
Result: 3.06

Source of measurements: patent US20230002757A1
